Where do these numbers come from? They come from ChEMBL document CHEMBL4265871.

# TEST PROTOCOL: Selectivity index, ratio of EC50 for toxicity in human A549 cells to MIC50 for antifungal activity against ITC and FLC-resistant Candida albicans ATCC 1237
# Format: cell-based
# MEASUREMENT CONDITIONS: read-out: Selectivity Index
Use Satisfied when the recorded selectivity ratio is no lower than 10; use Not satisfied when it is lower.

These solved cases illustrate the format of a correct answer.
COMPOUND	CATEGORY
CCCCCC(O)(Cn1cncn1)c1ccccc1F (stereo unspecified)	Satisfied
CCCCCC(O)(Cn1cncn1)c1ccc(F)cc1F (stereo unspecified)	Not satisfied
CCCCC(O)(Cn1cncn1)c1ccc(Cl)cc1Cl (stereo unspecified)	Not satisfied
CCCCCC(O)(Cn1cncn1)c1ccc(Cl)cc1 (stereo unspecified)	Not satisfied
CC[C@@H]([C@H](C)O)n1ncn(-c2ccc(N3CCN(c4ccc(OC[C@@H]5CO[C@@](Cn6cncn6)(c6ccc(F)cc6F)C5)cc4)CC3)cc2)c1=O	Not satisfied

Req: Please indicate if the recorded selectivity ratio for CCCCCC(O)(Cn1cncn1)c1ccc(Cl)cc1Cl (stereo unspecified) meets or exceeds 10.
Resp: Satisfied

Req: Ok, now CCCC(O)(Cn1cncn1)c1ccc(Cl)cc1Cl (stereo unspecified)
Resp: Not satisfied

Req: Another: CCCCCCC(O)(Cn1cncn1)c1ccc(F)cc1 (stereo unspecified)
Resp: Not satisfied

Req: // same read-out, input: CCCCCCC(O)(Cn1cncn1)c1ccc(F)cc1F (stereo unspecified)
Resp: Satisfied
